Values compiled from patent US20260042770A1.

# Subject of test: GFRα1-RET (Homo sapiens)
# Sequence (P56159 25-429 limits assumed): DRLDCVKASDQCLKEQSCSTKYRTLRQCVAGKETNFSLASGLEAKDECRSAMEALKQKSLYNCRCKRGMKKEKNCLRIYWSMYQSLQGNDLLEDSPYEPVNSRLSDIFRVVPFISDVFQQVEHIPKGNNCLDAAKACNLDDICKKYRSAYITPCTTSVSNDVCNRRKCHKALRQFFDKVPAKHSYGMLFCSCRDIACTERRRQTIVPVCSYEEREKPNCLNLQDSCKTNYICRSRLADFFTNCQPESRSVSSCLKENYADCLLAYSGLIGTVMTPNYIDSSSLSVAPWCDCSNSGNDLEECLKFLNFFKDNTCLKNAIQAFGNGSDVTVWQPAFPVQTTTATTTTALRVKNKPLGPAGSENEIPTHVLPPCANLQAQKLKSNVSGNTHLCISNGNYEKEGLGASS
# Procedure details: Elk1 luciferase reporter-gene assay in cells expressing GFRα1-RET
# Run parameters: agonist/activator activity of Elk1 signaling; MG87 murine fibroblast stably transfected with PathDetect Elk-1, GFRα1 and RET; 6 concentrations, duplicate, two independent runs
Assay readout: EC50

compound=Cc1c(Cl)cc(S(=O)(=O)CC(C)(C)C)cc1N1[C@@H]2CC[C@H]1CN(C(=O)c1ccc(F)cc1Cl)C2 subject_of_test="GFRα1-RET (Homo sapiens)" recorded_value="< 1 µM"
compound=COc1ccc(S(=O)(=O)Cc2ccccc2)cc1N1[C@@H]2CC[C@H]1CN(C(=O)c1ccc(F)cc1Cl)C2 subject_of_test="GFRα1-RET (Homo sapiens)" recorded_value="10 to 50 µM"
compound="CCC(CC)S(=O)(=O)c1ccc(OC)c(N2CCN(C(=O)c3ccc(F)cc3Cl)CC2C)c1 (racemic)" subject_of_test="GFRα1-RET (Homo sapiens)" recorded_value="1 to 10 µM"
compound="CCC(CCc1ccccc1)S(=O)(=O)c1ccc(OC)c(N2C3CCC2CN(C(=O)c2ccc(F)cc2Cl)C3)c1 (racemic)" subject_of_test="GFRα1-RET (Homo sapiens)" recorded_value="1 to 10 µM"
compound=COc1ccc(S(=O)(=O)C2CCCC2)cc1N1CCN(C(=O)c2ccc(F)cc2C(F)(F)F)CC1 subject_of_test="GFRα1-RET (Homo sapiens)" recorded_value="10 to 50 µM"
compound=CCC(CC)S(=O)(=O)c1ccc(OC)c(N2[C@@H]3CC[C@H]2CN(C(=O)c2ccc(F)cc2Cl)C3)c1 subject_of_test="GFRα1-RET (Homo sapiens)" recorded_value="1 to 10 µM"
